Biological target: Tyrosine-protein kinase JAK3 (Homo sapiens, UniProt P52333)
# IC50 per record follows
Please respond with the number in nM and leave the unit unwritten.

See these solved cases before continuing.
Challenge: Enter measured IC50, system Tyrosine-protein kinase JAK3 (Homo sapiens, UniProt P52333), for the molecule shown: `C=CC(=O)Nc1cccc(Cn2c(=O)ccc3cnc(Nc4ccccc4OC)nc32)c1`
Response given: 3

Challenge: Enter measured IC50, system Tyrosine-protein kinase JAK3 (Homo sapiens, UniProt P52333), for the molecule shown: `C=CC(=O)Nc1cccc(Cn2c(=O)ccc3cnc(Nc4ccc(N5CCN(C)CC5)cc4)nc32)c1`
Response given: 2

Please examine the following record next.
Challenge: Enter measured IC50, system Tyrosine-protein kinase JAK3 (Homo sapiens, UniProt P52333), for the molecule shown: `C=CC(=O)Nc1cccc(Cn2c(=O)ccc3cnc(Nc4ccc(N5CCN(C)CC5)cc4OCC)nc32)c1`
Response given: 9.8

----------
Target: Tyrosine-protein kinase JAK3 (Homo sapiens)
Sequence (P52333 whole entry): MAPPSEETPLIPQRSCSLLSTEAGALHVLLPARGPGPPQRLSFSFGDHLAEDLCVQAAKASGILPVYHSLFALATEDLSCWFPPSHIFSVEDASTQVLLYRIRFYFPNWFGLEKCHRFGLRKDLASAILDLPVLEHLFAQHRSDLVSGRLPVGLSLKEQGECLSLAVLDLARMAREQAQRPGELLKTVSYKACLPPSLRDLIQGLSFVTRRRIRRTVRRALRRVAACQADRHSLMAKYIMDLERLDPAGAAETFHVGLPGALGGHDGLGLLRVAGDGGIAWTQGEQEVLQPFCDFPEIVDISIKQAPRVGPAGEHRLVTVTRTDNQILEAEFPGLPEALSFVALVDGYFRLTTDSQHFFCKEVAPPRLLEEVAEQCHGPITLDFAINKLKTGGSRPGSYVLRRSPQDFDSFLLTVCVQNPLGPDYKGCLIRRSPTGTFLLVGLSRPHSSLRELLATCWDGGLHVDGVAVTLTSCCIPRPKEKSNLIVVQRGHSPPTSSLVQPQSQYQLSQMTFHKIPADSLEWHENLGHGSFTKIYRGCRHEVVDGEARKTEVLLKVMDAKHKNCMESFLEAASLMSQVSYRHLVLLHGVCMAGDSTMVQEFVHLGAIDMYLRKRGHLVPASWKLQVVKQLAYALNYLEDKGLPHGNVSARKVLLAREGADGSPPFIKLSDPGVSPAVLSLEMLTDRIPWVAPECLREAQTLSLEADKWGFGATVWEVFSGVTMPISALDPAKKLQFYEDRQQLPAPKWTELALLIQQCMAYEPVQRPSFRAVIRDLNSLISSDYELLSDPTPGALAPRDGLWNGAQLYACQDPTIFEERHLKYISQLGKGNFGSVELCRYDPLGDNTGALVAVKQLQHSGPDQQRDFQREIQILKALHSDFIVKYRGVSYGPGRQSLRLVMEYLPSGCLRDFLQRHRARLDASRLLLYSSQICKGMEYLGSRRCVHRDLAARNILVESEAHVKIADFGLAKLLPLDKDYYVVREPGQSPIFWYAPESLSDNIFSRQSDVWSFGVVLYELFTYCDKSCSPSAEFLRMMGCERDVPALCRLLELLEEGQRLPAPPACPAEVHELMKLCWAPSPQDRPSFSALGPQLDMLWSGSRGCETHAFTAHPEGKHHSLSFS
readoutLabel: pIC50
Value format note: pIC50 is -log10 of concentration (mol/L); just state the number.

See these solved cases before continuing.
Challenge: Complete the entry with pIC50 for `C=CC(=O)Nc1cccc(Cn2c(=O)ccc3cnc(Nc4ccc(N5CCN(C)CC5)cc4OC)nc32)c1`
Response given: 8.80

Challenge: Complete the entry with pIC50 for `C=CC(=O)Nc1cccc(Cn2c(=O)ccc3cnc(Nc4ccc(N5CCN(C)CC5)cc4OC(C)C)nc32)c1`
Response given: 5.89

Please examine the following record next.
Challenge: Complete the entry with pIC50 for `C=CC(=O)Nc1cccc(Cn2c(=O)cc(CC)c3cnc(Nc4ccc(N5CCN(C)CC5)cc4OC)nc32)c1`
Response given: 7.70
